Biological target: Human TRPC6 (Homo sapiens)
Construct: expressed in transfected cells
Experiment: Evaluation of TRPC6 channel inhibitory activity (1), FLIPR Calcium 5 Assay Kit, OAG stimulation (Compound Nos. 1-1293)
Assay type: cell-based
Settings: Human TRPC6 stably-expressing cells, OAG 30 μM, FLIPR Calcium 5 Assay Kit; read-out: Inhibitory activity (pIC50 class) (converted)
Overview of recorded IC50 for various compounds

CCCc1cc(Oc2cc(C#N)ccc2-c2ncc(CN)cn2)n(C)n1 [compound 363]	< 10 nM
N#Cc1ccc(-c2ncc(CCN)cn2)c(Oc2cnnc(-c3ccccc3)c2)c1 [Compound 277]	< 10 nM
Cc1nc(Oc2cc(C#N)ccc2-n2cnc(C(O)CN)c2)cc(-c2ccccc2)n1 (centres unmarked) [Compound 200]	> 1000 nM
Cc1nc(Oc2cc(C#N)ccc2-c2ncc(CN)cn2)cc(N2CCC2)n1 [compound 789]	10 to 1000 nM
N#Cc1ccc(-c2ncc(CCN)cn2)c(Oc2cncc(N3CCOCC3)c2)c1 [compound 917]	10 to 1000 nM

Determine reported IC50 for Cn1nc(C2CC2)cc1Oc1cc(C#N)ccc1-c1ccc(CN)nc1 [compound 331] ; test system: Human TRPC6 (Homo sapiens).
10 to 1000 nM

Please indicate recorded IC50 of Cn1nc(N2CCCC2)cc1Oc1cc(C#N)ccc1-c1ncc(CCN)cn1 [compound 628] measured with Human TRPC6 (Homo sapiens).
< 10 nM

State IC50 on Human TRPC6 (Homo sapiens). Entry: Cc1nc(CN2CCC(C(F)(F)F)CC2)cn1Cc1cc(C#N)ccc1-c1ncc(CCN)cn1 [compound 1180]
> 1000 nM

----------
Target: Human TRPC6 (Homo sapiens, UniProt Q9Y210)
Construct: expressed in transfected cells
Sequence (Q9Y210 whole entry): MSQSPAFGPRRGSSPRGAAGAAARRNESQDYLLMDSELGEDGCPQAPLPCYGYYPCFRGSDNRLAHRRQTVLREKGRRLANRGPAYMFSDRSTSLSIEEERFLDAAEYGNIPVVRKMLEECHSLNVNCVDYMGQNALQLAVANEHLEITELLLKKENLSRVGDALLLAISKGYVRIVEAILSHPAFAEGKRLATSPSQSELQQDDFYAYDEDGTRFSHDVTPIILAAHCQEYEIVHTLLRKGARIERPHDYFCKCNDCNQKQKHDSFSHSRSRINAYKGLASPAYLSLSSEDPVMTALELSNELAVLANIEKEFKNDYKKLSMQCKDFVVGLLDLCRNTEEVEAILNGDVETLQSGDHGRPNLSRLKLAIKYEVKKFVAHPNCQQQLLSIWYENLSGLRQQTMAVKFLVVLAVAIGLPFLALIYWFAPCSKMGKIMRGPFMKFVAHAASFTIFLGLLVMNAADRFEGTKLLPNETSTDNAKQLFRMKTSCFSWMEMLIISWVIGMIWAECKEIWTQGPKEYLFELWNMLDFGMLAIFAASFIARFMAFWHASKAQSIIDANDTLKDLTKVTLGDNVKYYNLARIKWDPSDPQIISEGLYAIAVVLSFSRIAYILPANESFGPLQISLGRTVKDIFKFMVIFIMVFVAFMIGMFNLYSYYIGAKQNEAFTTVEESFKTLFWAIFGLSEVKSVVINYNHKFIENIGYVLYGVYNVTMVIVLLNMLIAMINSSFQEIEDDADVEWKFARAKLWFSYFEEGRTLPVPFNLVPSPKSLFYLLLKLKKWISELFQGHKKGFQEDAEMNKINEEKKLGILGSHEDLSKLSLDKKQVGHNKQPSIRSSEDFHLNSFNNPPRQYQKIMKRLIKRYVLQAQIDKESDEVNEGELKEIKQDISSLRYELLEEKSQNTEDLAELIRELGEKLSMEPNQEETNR
Experiment: Evaluation of TRPC6 channel inhibitory activity (1), FLIPR Calcium 5 Assay Kit, OAG stimulation (Compound Nos. 1-1293)
Assay type: cell-based
Settings: Human TRPC6 stably-expressing cells, OAG 30 μM, FLIPR Calcium 5 Assay Kit; read-out: Inhibitory activity (pIC50 class) (converted)
TEST READOUT: IC50

CC(C)c1nc(Oc2cc(C#N)ccc2-c2ncc(CCN)cn2)n(C)n1 [compound 813]	> 1000 nM
N#Cc1ccc(-c2ccc(CCN)cc2)c(Oc2cnnc(N3CCCCC3)c2)c1 [Compound 66]	< 10 nM
Cn1nc(C2CC2)cc1Oc1cc(C#N)ccc1-c1cc(CCN)ccn1 [compound 482]	< 10 nM
N#Cc1ccc(-c2ncc(CCN)cn2)c(C(=O)c2cnn(-c3ccccn3)c2)c1 [compound 1037]	< 10 nM
Cn1nc(-c2ccccn2)cc1Oc1cc(C#N)ccc1-c1ncc(CNC2CC2)cn1 [compound 662]	10 to 1000 nM

Give the reported value of IC50 for this record: CC(C)Nc1cc(Sc2cc(C#N)ccc2-c2ncc(CN)cn2)cnn1 [compound 1272]
10 to 1000 nM

Hello, please tell me recorded IC50 for this one: Cc1cc(Oc2cc(C#N)ccc2-c2ncc([C@H](F)CN)cn2)cc(N2CCOCC2)n1 [compound 872]
< 10 nM

Note down IC50 recorded for CC(C)Cn1cc(Cc2cc(F)ccc2-c2ncc(CCN)cn2)cn1 [compound 1222]
10 to 1000 nM

----------
Molecular target: Human TRPC6 (Homo sapiens)
Construct: expressed in transfected cells
Test: Evaluation of TRPC6 channel inhibitory activity (1), FLIPR Calcium 5 Assay Kit, OAG stimulation (Compound Nos. 1-1293)
Format: cell-based
Conditions: Human TRPC6 stably-expressing cells, OAG 30 μM, FLIPR Calcium 5 Assay Kit; read-out: Inhibitory activity (pIC50 class) (converted)
Known IC50 of a selection of compounds

Sample answers from the record:
Cn1nc(-c2ccc(F)cc2)cc1Oc1cc(C#N)ccc1-c1ccc(CCN)nc1	10 to 1000 nM
Cc1cc(Oc2cc(C#N)ccc2-c2ncc(CCN)cn2)cc(-c2nccn2C)n1	> 1000 nM
Cn1nc(C(F)(F)C(F)(F)F)cc1Oc1cc(C#N)ccc1-c1ncc(CCN)cn1	< 10 nM
Cc1cc(Oc2cc(C#N)ccc2-c2ccc(C[C@H](N)C(=O)O)cn2)cc(N2CCOCC2)n1	> 1000 nM
Cc1nc(Oc2cc(C#N)ccc2-c2ccc(C(O)CN(C)C)cc2)cc(-c2ccccc2)n1 (centres unmarked)	> 1000 nM
Cc1cc(Oc2cc(C#N)ccc2-c2ccc([C@H](O)CN)cn2)cc(-c2ncco2)n1	10 to 1000 nM
N#Cc1ccc(-c2ncc(CN)cn2)c(Oc2cnnc(N3CCCCC3)c2)c1	< 10 nM
Cn1nc(C2CC2)cc1Oc1cc(C#N)ccc1-c1ccc(C2CNCCO2)cn1 (centres unmarked)	10 to 1000 nM

State the measured IC50 (Human TRPC6 (Homo sapiens)) of Cn1nc(C2CC2)cc1Oc1cc(C#N)ccc1-c1ccc(C(N)C(=O)O)cn1 (centres unmarked)
< 10 nM

Name the value of IC50 reported for `Cn1nc(C2CC2)cc1Oc1cc(C#N)ccc1-c1cc(C(=O)NCCN)ccn1` when tested on Human TRPC6 (Homo sapiens).
10 to 1000 nM
